test system: Radical scavenging activity; experiment: Antioxidant activity assessed as DPPH free radical scavenging activity; assay type: functional
pIC50: −log10 of the molar value.
# pIC50 annotations

| COMPOUND | RESULT_COMPARATOR | pIC50 |
| --- | --- | --- |
| CCOC(OCC)c1ccc(/C=C/C(=O)C2CCc3ccccc3C2=O)cc1 (centres undefined) | < | 4.30 |
| CCOC(OCC)c1ccc(/C=C2\CCC/C(=C\c3ccc(C(OCC)OCC)cc3)C2=O)cc1 | = | 4.70 |
| O=C(/C=C/c1ccc(N2CCCC2)cc1)C1CCc2ccccc2C1=O (centres undefined) | = | 4.55 |
| O=C1/C(=C\c2ccc(N3CCCC3)cc2)CNC/C1=C\c1ccc(N2CCCC2)cc1 | = | 4.57 |
| CN1C/C(=C/c2ccc(N(C)C)cc2[N+](=O)[O-])C(=O)/C(=C/c2ccc(N(C)C)cc2[N+](=O)[O-])C1 | = | 4.74 |
| CCOC(OCC)c1ccc(/C=C2\COC/C(=C\c3ccc(C(OCC)OCC)cc3)C2=O)cc1 | = | 4.53 |
| CN(C)c1ccc(/C=C2/CN(Cc3ccccc3)C/C(=C\c3ccc(N(C)C)cc3[N+](=O)[O-])C2=O)c([N+](=O)[O-])c1 | < | 4.30 |
| CCOC(OCC)c1ccc(/C=C2\CN(Cc3ccccc3)C/C(=C\c3ccc(C(OCC)OCC)cc3)C2=O)cc1 | = | 4.55 |
| CN(C)c1ccc(/C=C2\Cc3ccccc3C2=O)c([N+](=O)[O-])c1 | < | 4.30 |
